# Test system: pituitaries
# protocol details: In vitro growth hormone release study (incubated rat pituitaries, GH by RIA)
# Assay type: cell-based
# stated conditions: dosage 1,000 ng/ml incubation medium; GH released at I3, I4 (I5) minus P2; mean ± SEM
Where a SMILES comes first, the peptide text is derived from it.
Here, each record is paired with measured ΔGH data.

compound	assay target	ΔGH
C[C@H](NC(=O)[C@@H](Cc1c[nH]c2ccccc12)NC(=O)[C@@H](N)Cc1ccc(O)cc1)C(=O)N[C@@H](Cc1c[nH]c2ccccc12)C(=O)N[C@H](Cc1ccccc1)C(=O)N[C@@H](CCC(N)=O)C(=O)O [H2 -Tyr-D-Trp-Ala-Trp-D-Phe-Gln-OH] (HELM PEPTIDE1{Y.[dW].A.W.[dF].Q}$$$$V2.0)	pituitaries	2,759 ± 515 ng/ml incubation medium
CSCC[C@H](NC(=O)[C@@H](Cc1ccccc1)NC(=O)[C@H](Cc1c[nH]c2ccccc12)NC(=O)[C@H](C)NC(=O)[C@@H](Cc1c[nH]c2ccccc12)NC(=O)[C@@H](N)Cc1ccc(O)cc1)C(N)=O [H2 -Tyr-D-Trp-Ala-Trp-D-Phe-Met-NH2] (HELM PEPTIDE1{Y.[dW].A.W.[dF].M.[am]}$$$$V2.0)	pituitaries	1,832 ± 441 ng/ml incubation medium
C[C@H](NC(=O)[C@@H](Cc1c[nH]c2ccccc12)NC(=O)[C@@H](N)Cc1ccc(O)cc1)C(=O)N[C@@H](Cc1c[nH]c2ccccc12)C(=O)N[C@H](Cc1ccccc1)C(=O)N[C@H](C(N)=O)[C@@H](C)O [H2 -Tyr-D-Trp-Ala-Trp-D-Phe-Thr-NH2] (HELM PEPTIDE1{Y.[dW].A.W.[dF].T.[am]}$$$$V2.0)	pituitaries	2,167 ± 591 ng/ml incubation medium

----------
# Tested on: pituitaries
# protocol details: In vitro growth hormone release study (incubated rat pituitaries, GH by RIA)
# Type: cell-based
# stated conditions: dosage 1,000 ng/ml incubation medium; GH released at I3, I4 (I5) minus P2; mean ± SEM
# Description: Female rats of the CD-1 strain were housed in a constant temperature room at 24° C. with 14 hours light and 10 hours darkness. The rats were fed Purina brand rat chow ab libitum. All studies were started between 0800 and 1000 hours. Pituitaries were removed from 20 day old female rats. In each polytetrafluoroethylene beaker (10 ml) was incubated two pituitaries at 36° C. in 1 ml of lactated Ringer's solution in a Dubnoff Shaker (90 cycles/min.). […]
Where a SMILES comes first, the peptide text is derived from it.

compound	assay target	ΔGH
C[C@H](NC(=O)[C@@H](Cc1c[nH]c2ccccc12)NC(=O)[C@@H](N)Cc1ccc(O)cc1)C(=O)N[C@@H](Cc1c[nH]c2ccccc12)C(=O)N[C@H](Cc1ccccc1)C(=O)N[C@@H](CCC(N)=O)C(N)=O [H2 -Tyr-D-Trp-Ala-Trp-D-Phe-Gln-NH2] (HELM PEPTIDE1{Y.[dW].A.W.[dF].Q.[am]}$$$$V2.0)	pituitaries	4,235 ± 785 ng/ml incubation medium
C[C@H](NC(=O)[C@@H](Cc1c[nH]c2ccccc12)NC(=O)[C@@H](N)Cc1ccc(O)cc1)C(=O)N[C@@H](Cc1c[nH]c2ccccc12)C(=O)N[C@H](Cc1ccccc1)C(=O)N[C@@H](CC(N)=O)C(N)=O [H2 -Tyr-D-Trp-Ala-Trp-D-Phe-Asn-NH2] (HELM PEPTIDE1{Y.[dW].A.W.[dF].N.[am]}$$$$V2.0)	pituitaries	1,670 ± 126 ng/ml incubation medium
NC(=O)CC[C@H](NC(=O)[C@@H](Cc1ccccc1)NC(=O)[C@H](Cc1c[nH]c2ccccc12)NC(=O)CNC(=O)[C@@H](Cc1c[nH]c2ccccc12)NC(=O)[C@@H](N)Cc1ccc(O)cc1)C(N)=O [H2 -Tyr-D-Trp-Gly-Trp-D-Phe-Gln-NH2] (HELM PEPTIDE1{Y.[dW].G.W.[dF].Q.[am]}$$$$V2.0)	pituitaries	1,092 ng/ml incubation medium
